Test system: C. elegans
Assay: microbe, parasite or virus in culture
Conditions: Caenorhabditis elegans, 0 h, read-out: Percentage of motility inhibition 0 h, Table S2, C. elegans SS assay, 110 μM, 0 h, averages of 4 data points
Given measured inhibition at 110 µM, output Fulfilled if it is greater than or equal to 2% and Not fulfilled if not.

# COMPOUND, CLASSIFICATION
data = [
    ("O=C1C=CC[C@@H]2[C@H]3CCC[N+]4([O-])CCC[C@@H](CN12)[C@@H]34 (stereo partly drawn)", "Fulfilled"),
    ("C/C=C(\\C)C(=O)O[C@H]1[C@H](OC(C)=O)[C@]2(CO)[C@H](O)C[C@]3(C)C(=CC[C@@H]4[C@@]5(C)CC[C@H](O[C@@H]6O[C@H](C(=O)O)[C@@H](O[C@@H]7O[C@H](CO)[C@@H](O)[C@H](O)[C@H]7O)[C@H](O)[C@H]6O[C@@H]6O[C@H](CO)[C@@H](O)[C@H](O)[C@H]6O)[C@](C)(CO)[C@@H]5CC[C@]43C)[C@@H]2CC1(C)C", "Not fulfilled"),
    ("Nc1ccn(C[C@@H](CO)OCP(=O)(O)O)c(=O)n1", "Fulfilled"),
    ("Nc1nc2c(ncn2COCCO)c(=O)[nH]1", "Fulfilled"),
    ("C/C(=C\\CC[C@@H](C)[C@H]1CC[C@@]2(C)C3=CC[C@H]4C(C)(C)[C@@H](O)CC[C@]4(C)C3=CC[C@]12C)CO", "Fulfilled"),
    ("O=C1C[C@@H](c2ccc(O)c(O)c2)Oc2cc(O)cc(O)c21", "Not fulfilled"),
    ("Cc1[nH]ccc2c1[nH]c1cc(=O)ccc12", "Not fulfilled"),
    ("CN1[C@@H]2CC[C@H]1C[C@@H](O)C2", "Fulfilled"),
    ("O=C(CCc1ccc(O)cc1)c1c(O)cc(O)cc1O[C@@H]1O[C@H](CO)[C@@H](O)[C@H](O)[C@H]1O", "Not fulfilled"),
    ("O=C1C[C@@H](c2ccccc2)Oc2cc(O)cc(O)c21", "Fulfilled"),
    ("O=C1N[C@@H]2[C@@H](O)[C@@H](O)[C@H](O)[C@@H](CO)N2C1=O", "Fulfilled"),
    ("CCOC(=O)CCC(=O)O[C@H]1[C@H](O[C@@H]2[C@@H](C)[C@H](O[C@H]3C[C@@](C)(OC)[C@@H](O)[C@H](C)O3)[C@@H](C)C(=O)O[C@H](CC)[C@@](C)(O)[C@H](O)[C@@H](C)C(=O)[C@H](C)C[C@@]2(C)O)O[C@H](C)C[C@@H]1N(C)C [Erythromycin Ethylsuccinate]", "Fulfilled"),
    ("c1ccc2c(Cc3c[nH]c4ccccc34)c[nH]c2c1", "Not fulfilled"),
]

====

Listed here are compounds together with their documented inhibition at 110 µM.
System: C. elegans
Assay: microbe, parasite or virus in culture
Conditions: Caenorhabditis elegans, 24 h, read-out: Percentage of motility inhibition 24 h, Table S2, C. elegans SS assay, 110 μM, 24 h, averages of 4 data points

# COMPOUND, inhibition at 110 µM [%]
records = [
    ("CC(C)(C)C(=O)C(Oc1ccc(Cl)cc1)n1ccnc1 (stereo not shown)", 2),
    ("CCOC(=O)c1ccc(O)cc1", 8),
    ("C=C1CC[C@@H]2[C@](C)(CO)[C@H](O)CC[C@@]2(C)[C@@H]1CCC1=CCOC1=O [14-Deoxyandrographolide]", 28),
    ("COc1ccc(-c2cc(=O)c3c(O)c(OC)c(OC)cc3o2)cc1", 3),
]

====

Test system: C. elegans
Conditions: 24 h, 110 µM
Where a SMILES comes first, the peptide text is derived from it.
Listed here are compounds together with their documented Percentage of motility inhibition 24 h.

# COMPOUND, ASSAY_TARGET, Percentage of motility inhibition 24 h (%)
records = [
    ("NCCCC[C@H](NC(=O)[C@H](Cc1c[nH]c2ccccc12)NC(=O)[C@@H](N)CCCCN)C(=O)O [H‐Lys‐Trp‐Lys‐OH] (H-Lys-Trp-Lys-OH)", "C. elegans", 10),
    ("O=C(/C=C/c1ccccc1)c1ccccc1 [Chalcone]", "C. elegans", 86),
    ("COc1ccc2cc1Oc1ccc(cc1)C[C@H]1c3cc(c(OC)cc3CCN1C)Oc1c(OC)c(OC)cc3c1[C@H](C2)N(C)CC3 [Tetrandrine]", "C. elegans", 12),
    ("O=C1CCC[C@@H]2[C@H]3CCC[N+]4([O-])CCC[C@@H](CN12)[C@@H]34 (stereo partly drawn) [Oxymatrine]", "C. elegans", 6),
    ("O=c1cc(-c2ccccc2)oc2cc(O)c(O)c(O)c12 [Baicalein]", "C. elegans", 19),
    ("COc1cc2c(cc1OC)[C@@H]1Cc3ccc(OC)c(OC)c3CN1CC2 [Rotun dine]", "C. elegans", 4),
]

====

System: C. elegans
Conditions: Table S2, C. elegans SS assay, 110 μM, 0 h, averages of 4 data points
Given measured Percentage of motility inhibition 0 h, output condition met if it is greater than or equal to 3% and condition not met if not.

# MOLECULE, CLASSIFICATION
rows = [
    ("C/C=C1/CN2CCc3c([nH]c4ccccc34)[C@@H]2C[C@@H]1/C(=C/OC)C(=O)OC [Geissoschizine methyl ether]", "condition not met"),
    ("CC(C)=CCC[C@H](C)CC=O [(S)-(-)-Citronellal]", "condition met"),
    ("[Cl-].c1c2c(cc3c1OCO3)-c1cc3ccc4c(c3c[n+]1CC2)OCO4 [Coptisine (chloride)]", "condition not met"),
    ("CN[C@@H]1[C@H](O)[C@H](NC)[C@H]2O[C@@]3(O)C(=O)C[C@@H](C)O[C@H]3O[C@@H]2[C@H]1O.Cl.Cl.O.O.O.O.O", "condition met"),
    ("c1cn[nH]c1 [1H‐pyrazole]", "condition not met"),
    ("O=C1C[C@@H](c2ccc(O)c(O)c2)Oc2cc(O[C@@H]3O[C@H](CO)[C@@H](O)[C@H](O)[C@H]3O)cc(O)c21 [Eriodictyol‐7‐O‐glucoside]", "condition met"),
    ("O=C(CC(O)(CC(=O)OCc1ccc(OC2OC(CO)C(O)C(O)C2O)cc1)C(=O)OCc1ccc(OC2OC(CO)C(O)C(O)C2O)cc1)OCc1ccc(OC2OC(CO)C(O)C(O)C2O)cc1 (stereo not drawn) [Parishin]", "condition not met"),
    ("CC1(C)CC[C@]2(C(=O)O)CC[C@]3(C)C(=CC[C@@H]4[C@@]5(C)CC[C@H](O[C@@H]6O[C@H](C(=O)O)[C@@H](O)[C@H](O[C@@H]7OC[C@@H](O)[C@H](O)[C@H]7O[C@@H]7O[C@H](CO)[C@@H](O)[C@H](O)[C@H]7O)[C@H]6O)C(C)(C)[C@@H]5CC[C@]43C)[C@@H]2C1", "condition not met"),
    ("COc1ccc(CCC(=O)c2ccc(O)cc2)c(OC)c1 [Loureirin A]", "condition met"),
    ("C[C@H]1O[C@@H](O[C@@H]2CC[C@@]3(C)[C@@H](CC[C@]4(C)[C@@H]3C=C[C@]35OC[C@@]6(CCC(C)(C)C[C@H]63)[C@@H](O)C[C@]54C)[C@@]2(C)CO)[C@H](O)[C@@H](O)[C@H]1O (stereo in doubt) [Prosaikogenin G]", "condition not met"),
]

====

System: C. elegans
Assay: microbe, parasite or virus in culture
Conditions: Caenorhabditis elegans, 0 h, read-out: Percentage of motility inhibition 0 h, Table S2, C. elegans SS assay, 110 μM, 0 h, averages of 4 data points
Listed here are compounds together with their documented inhibition at 110 µM.

# COMPOUND, inhibition at 110 µM (%)
measured = [
    ("O=c1c(-c2ccc(O)cc2)coc2cc(O)cc(O)c12 [Genistein]", 5),
    ("C[C@H](CC[C@@H](O)C(C)(C)O)[C@H]1CC[C@@]2(C)[C@@H]3CC=C4[C@@H](CC[C@H](O)C4(C)C)[C@]3(C)[C@H](O)C[C@]12C [Mogrol]", 5),
    ("CC[C@@]1(O)C(=O)OCc2c1cc1n(c2=O)Cc2cc3c([N+](=O)[O-])cccc3nc2-1 [Rubitecan]", 5),
]

====

System: C. elegans
Settings: Table S2, C. elegans SS assay, 110 μM, 0 h, averages of 4 data points
Listed here are compounds together with their documented Percentage of motility inhibition 0 h.
MEASURED_QUANTITY: Percentage of motility inhibition 0 h (%)

# COMPOUND, MEASURED_QUANTITY, RECORDED_VALUE
data = [
    ("CCN(CC)c1nc2c(S(=O)(=O)c3ccc(Cl)cc3)nnn2c2cc(OC)c(OC)cc12 [Targocil]", "Percentage of motility inhibition 0 h", 21),
    ("O=c1cc(-c2ccc(O)cc2)oc2c([C@@H]3O[C@H](CO)[C@@H](O)[C@H](O)[C@H]3O)c(O)c([C@@H]3O[C@H](CO)[C@@H](O)[C@H](O)[C@H]3O)c(O)c12 [Vicenin 2]", "Percentage of motility inhibition 0 h", 0),
    ("O=C([O-])C1=C(CSc2nnnn2CS(=O)(=O)[O-])CS[C@@H]2[C@H](NC(=O)[C@H](O)c3ccccc3)C(=O)N12.[Na+].[Na+] [Cefonicid (sodium)]", "Percentage of motility inhibition 0 h", 0),
]
